Entry source: ChEMBL document CHEMBL1154748

- runDescription: Growth inhibition of VHL-null human RCC4 cells after 4 days by XTT assay
- Assay type: functional
- conditions: RCC4, 96 h
Listing of recorded GI50 by entry.
measuredParameter: GI50 (µM)

givenSmiles | relationSign | value
COc1cc(Nc2nc(-c3ccncc3)cs2)cc(OC)c1OC | > | 40
c1ccc(Nc2nc(-c3ccncc3)cs2)cc1 | = | 7
c1ccc(Nc2nc(-c3ccccn3)cs2)cc1 | = | 35.1
Cc1cccc(Nc2nc(-c3ccncc3)c(CO)s2)c1 | = | 7
Cc1cccc(Nc2nc(-c3ccncc3C#CCO)cs2)c1 | = | 0.24
Cc1cccc(CNc2nc(-c3ccncc3)cs2)c1 | > | 40
Cc1sc(Nc2ccc3c(c2)CCC3)nc1-c1ccncc1 | = | 12
Oc1ccccc1Nc1nc(-c2ccncc2)cs1 | = | 12.8
Cc1cccc(N(CCO)c2nc(-c3ccncc3)cs2)c1 | > | 40
Cc1cccc(Nc2nc(-c3ccncc3Br)cs2)c1 | = | 3.9
OCCc1ccc(Nc2nc(-c3ccncc3)cs2)cc1 | = | 5
Cc1cccc(Nc2nc(-c3ccnc(C)c3)cs2)c1 | > | 40
Clc1ccc(Nc2nc(-c3ccncc3)cs2)cc1Cl | = | 13.5
